// provenance: patent US9220758B2

system: bovine articular cartilage explants; assay: PGE2 release from cytokine-stimulated bovine cartilage explants (ELISA); type: cell-based; conditions: TNFa/IL-1a/OSM 10 ng/ml each, 3 week culture
recorded.endpoint: highest ineffective concentration, PGE2 release

INSERT INTO measurements (molecule, result) VALUES
  ('Cc1ccc(-c2cc(C(F)(F)F)nn2-c2ccc(S(N)(=O)=O)cc2)cc1 [Celebrex ® (celecoxib), celecoxib]', '<0.01 µM'),
  ('C[C@H]1c2cccc(O)c2C(=O)C2=C(O)[C@]3(O)C(=O)C(C(N)=O)=C(O)[C@@H](N(C)C)[C@@H]3[C@@H](O)[C@@H]21 [Doxycycline]', '1 to 10 µM'),
  ('C[C@@H]1C[C@H]2[C@@H]3CCC4=CC(=O)C=C[C@]4(C)[C@@]3(F)[C@@H](O)C[C@]2(C)[C@@]1(O)C(=O)CO [Dexamethasone]', '<0.01 µM'),
  ('CNC(=O)[C@H](Cc1c[nH]c2ccccc12)NC(=O)[C@@H](CC(=O)NO)CC(C)C [Galardin]', '>10 µM');
